Below, each of the compounds is paired with its reported pIC50 value.
# ASSAYED_SYSTEM: recombinant TRPV1 channel (Homo sapiens, UniProt Q8NER1)
# Construct: expressed in transfected cells; host or cells: CHO cells
# Sequence (Q8NER1 whole entry): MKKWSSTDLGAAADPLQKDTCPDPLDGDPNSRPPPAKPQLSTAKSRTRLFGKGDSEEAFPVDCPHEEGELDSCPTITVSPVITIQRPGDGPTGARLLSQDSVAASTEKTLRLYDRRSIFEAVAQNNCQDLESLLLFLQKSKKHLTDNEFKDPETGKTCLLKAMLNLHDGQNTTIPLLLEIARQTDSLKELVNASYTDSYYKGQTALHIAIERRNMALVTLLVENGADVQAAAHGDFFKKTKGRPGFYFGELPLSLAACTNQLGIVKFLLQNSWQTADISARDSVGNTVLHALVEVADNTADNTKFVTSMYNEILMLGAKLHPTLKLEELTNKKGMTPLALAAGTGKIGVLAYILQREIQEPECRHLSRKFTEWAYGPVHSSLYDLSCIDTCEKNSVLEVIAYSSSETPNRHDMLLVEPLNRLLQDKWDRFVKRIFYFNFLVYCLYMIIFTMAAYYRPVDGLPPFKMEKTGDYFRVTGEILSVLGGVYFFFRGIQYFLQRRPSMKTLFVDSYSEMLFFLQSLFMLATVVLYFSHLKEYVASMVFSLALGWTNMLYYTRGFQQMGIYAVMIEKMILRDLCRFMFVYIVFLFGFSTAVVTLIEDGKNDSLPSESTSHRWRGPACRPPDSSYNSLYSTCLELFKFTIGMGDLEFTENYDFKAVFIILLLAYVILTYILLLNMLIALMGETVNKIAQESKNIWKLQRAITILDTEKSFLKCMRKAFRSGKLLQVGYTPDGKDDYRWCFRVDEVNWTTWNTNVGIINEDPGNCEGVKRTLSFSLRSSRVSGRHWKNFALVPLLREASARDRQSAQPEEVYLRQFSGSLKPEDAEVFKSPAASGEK
# ASSAY_REMARKS: Whole-cell recording of capsaicin-activated recombinant TRPV1 currents in transfected CHO cells
# Type: cell-based
# CONDITION: N = 5-10; Retigabine: No effect at 30; read-out: IC50 on TRPV1
pIC50: −log10 of the molar value.

- COMPOUND: "O=C(Cc1ccc(Nc2c(Cl)cc(C(F)(F)F)cc2Cl)cc1)NCCO [NH34, reference compound]"
  ASSAYED_SYSTEM: "recombinant TRPV1 channel (Homo sapiens, UniProt Q8NER1)"
  pIC50: 4.26
- COMPOUND: "CC(C)(CO)CNC(=O)Cc1cc(Nc2c(Cl)cc(Cl)cc2Cl)ccc1F [NH82]"
  ASSAYED_SYSTEM: "recombinant TRPV1 channel (Homo sapiens, UniProt Q8NER1)"
  pIC50: 6.40
- COMPOUND: "CC(C)(O)CCNC(=O)Cc1cc(Nc2c(Cl)cc(Cl)cc2Cl)ccc1F [NH83]"
  ASSAYED_SYSTEM: "recombinant TRPV1 channel (Homo sapiens, UniProt Q8NER1)"
  pIC50: 6.10
- COMPOUND: "CC(C)(O)CCNC(=O)Cc1cc(Nc2c(Cl)cc(Cl)cc2C2CC2)ccc1F [NH101]"
  ASSAYED_SYSTEM: "recombinant TRPV1 channel (Homo sapiens, UniProt Q8NER1)"
  pIC50: 7.00
- COMPOUND: "O=C(Cc1cc([N+](=O)[O-])cc([N+](=O)[O-])c1Nc1c(Cl)cc([N+](=O)[O-])cc1Cl)NCCO [NH29, reference compound]"
  ASSAYED_SYSTEM: "recombinant TRPV1 channel (Homo sapiens, UniProt Q8NER1)"
  pIC50: 5.38
- COMPOUND: "CC(C)c1cc(Cl)cc(Cl)c1Nc1ccc(F)c(CC(=O)NCC(C)(C)O)c1 [NH91]"
  ASSAYED_SYSTEM: "recombinant TRPV1 channel (Homo sapiens, UniProt Q8NER1)"
  pIC50: 7.00
- COMPOUND: "O=C(Cc1cc(Nc2c(Cl)cc(Cl)cc2Cl)ccc1F)NCCO [NH43, reference compound]"
  ASSAYED_SYSTEM: "recombinant TRPV1 channel (Homo sapiens, UniProt Q8NER1)"
  pIC50: 6.40

###

# ASSAYED_SYSTEM: recombinant Kv7.2/3 channels (Homo sapiens, UniProt O43525+O43526)
# Construct: expressed in transfected cells; host or cells: CHO cells
# ASSAY_REMARKS: Whole-cell patch clamp of recombinant Kv7.2/3 currents in transfected CHO cells
# Format: cell-based
# CONDITION: compound at 5 μM; N = 5-12
Items are presented alongside their recorded V50 (parameter of potency for Kv7.2/3 At 5 μM).
TEST_READOUT: V50 (parameter of potency for Kv7.2/3 At 5 μM) (mV)

- MOLECULE: "CC(C)(O)CCNC(=O)Cc1cc(Nc2c(Cl)cc(Cl)cc2Cl)ccc1F [NH83]"
  NUMERIC_RESULT: "−37.3"
- MOLECULE: "CC(C)c1cc(Cl)cc(Cl)c1Nc1ccc(F)c(CC(=O)NCC(C)(C)O)c1 [NH91]"
  NUMERIC_RESULT: "−42.4"
- MOLECULE: "O=C(Cc1ccc(Nc2c(Cl)cc(C(F)(F)F)cc2Cl)cc1)NCCO [NH34, reference compound]"
  NUMERIC_RESULT: "−28.1"
